# system-name: UniProt P29274
# Sequence (P29274 whole entry): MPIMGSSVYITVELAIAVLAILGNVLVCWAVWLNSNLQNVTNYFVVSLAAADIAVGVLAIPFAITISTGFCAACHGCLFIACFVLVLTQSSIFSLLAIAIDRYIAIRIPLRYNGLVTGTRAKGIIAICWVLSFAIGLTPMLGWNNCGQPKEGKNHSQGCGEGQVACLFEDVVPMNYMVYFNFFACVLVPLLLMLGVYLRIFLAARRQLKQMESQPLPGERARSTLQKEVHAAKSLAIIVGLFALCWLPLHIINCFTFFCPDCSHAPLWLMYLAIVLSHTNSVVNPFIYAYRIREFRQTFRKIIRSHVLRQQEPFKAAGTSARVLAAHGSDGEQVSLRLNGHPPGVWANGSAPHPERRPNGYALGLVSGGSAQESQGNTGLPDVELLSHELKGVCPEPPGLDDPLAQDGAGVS
# assay-overview: biochemical
# Format: cell-based, CHO
# measurement-setup: read-out: Ki
Documented Ki across a set of compounds

COc1ccc(-n2nc3c(NC(=O)C(c4ccccc4)c4ccccc4)nc4c([N+](=O)[O-])cccc4n3c2=O)cc1
> 10 µM
CCn1nnc([C@H]2O[C@@H](n3cnc4c(N)nc(N[C@H](CO)Cc5ccccc5)nc43)[C@H](O)[C@@H]2O)n1
0.016 µM
c1ccc(Oc2nc(NC3CCCCC3)c3[nH]cnc3n2)cc1
> 10 µM
CNc1nc(C#N)nc2c1ncn2[C@@H]1O[C@H](CO)[C@@H](O)[C@H]1O
> 10 µM
Cc1ccc(-n2cc3c(=O)[nH]c4ccccc4c3n2)cc1
> 1 µM

Bench note: what Ki did `CCCn1c(=O)c2c(nc3cc(-c4ccccc4)ccn32)n(Cc2ccccc2)c1=O` show?
> 10 µM

Report Ki for `CCCCC#Cc1nc2c(N)ncnc2n1[C@@H]1O[C@H](CO)[C@@H](O)[C@H]1O` please.
> 100 µM

What value of measured Ki is listed for `O=C(Cc1ccccc1)Nc1nc2ccc(Cl)cc2c2nc(-c3ccco3)nn12` ?
0.025 µM

Bench note: what Ki did `CNC(=O)[C@]1(n2cnc3c(NCc4cccc(I)c4)nc(Cl)nc32)SC[C@H](O)[C@@H]1O` show?
> 10 µM
